molecular target: Recombinant human DDR2 (Homo sapiens (Human), UniProt Q16832); experiment: LanthaScreen Eu Kinase Binding Assay, DDR2; conditions: DDR2 1.75 nM (aa427-855, GST tag), Kinase Tracer 178 10 nM
Sequence (Q16832 427-855): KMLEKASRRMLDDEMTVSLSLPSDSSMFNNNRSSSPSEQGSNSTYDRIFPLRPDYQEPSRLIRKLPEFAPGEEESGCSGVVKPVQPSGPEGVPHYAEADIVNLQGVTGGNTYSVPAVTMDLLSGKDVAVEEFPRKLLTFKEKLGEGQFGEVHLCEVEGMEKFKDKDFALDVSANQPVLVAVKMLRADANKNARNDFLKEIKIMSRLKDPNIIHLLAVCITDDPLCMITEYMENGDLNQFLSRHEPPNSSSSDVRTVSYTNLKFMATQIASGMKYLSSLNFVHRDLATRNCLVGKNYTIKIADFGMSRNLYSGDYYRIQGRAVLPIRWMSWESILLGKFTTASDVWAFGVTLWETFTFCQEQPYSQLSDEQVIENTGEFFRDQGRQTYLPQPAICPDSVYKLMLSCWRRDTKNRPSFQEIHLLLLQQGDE
measured parameter: DDR2 pIC50

Consider the worked cases shown below.
Query DDR2 pIC50 on Recombinant human DDR2 (Homo sapiens (Human), UniProt Q16832) for Cc1n[nH]c2cc(Nc3cccc4c3C(=O)N(CC(=O)N3CCC[C@H]3CF)C4)ccc12 [Example 33]
A (pIC50>8)

Also Cc1n[nH]c2cc(Nc3cccc4c3C(=O)N(CC(=O)N[C@@H](C)C(F)(F)F)C4)cnc12 [Example 66] ?
A (pIC50>8)

Also Cn1ncc2cc(Nc3cccc4c3C(=O)N(CC(=O)NCC(F)(F)F)C4)cc(Cl)c21 [Example 27] ?
A (pIC50>8)

Also Cc1n[nH]c2cc(Nc3cccc4c3C(=O)N(CC(=O)N(C)CC(F)(F)F)C4)ccc12 [Example 46] ?
A (pIC50>8)

Also Cc1n[nH]c2cc(Nc3cccc4c3C(=O)N(CC(=O)N3CCCC(C(F)(F)F)C3)C4)ccc12 (stereo not shown) [Example 32] ?
A (pIC50>8)

Also Cn1ncc2cc(Nc3cccc4c3C(=O)N(CC(=O)N3CCC[C@H]3C(F)(F)F)C4)cnc21 [Example 51] ?
A (pIC50>8)

Also Cn1ncc2cc(Nc3cccc4c3C(=O)N(CC(=O)N3CCC[C@H]3C(F)(F)F)C4)cc(F)c21 [Example 96] ?
A (pIC50>8)

Also O=C(CN1Cc2cccc(Nc3cnc4[nH]ncc4c3)c2C1=O)NCC(F)(F)F [Example 22] ?
D (pIC50≤6)

Also Cc1nn(C)c2ncc(Nc3cccc4c3C(=O)N(CC(=O)NCC(F)(F)F)C4)cc12 [Example 101] ?
D (pIC50≤6)

Also C[C@H](NC(=O)CN1Cc2cccc(Nc3ccc4c(cnn4C)c3)c2C1=O)C(F)(F)F [Example 2] ?
A (pIC50>8)

Others:
Query DDR2 pIC50 on Recombinant human DDR2 (Homo sapiens (Human), UniProt Q16832) for Cc1n[nH]c2cc(Nc3cccc4c3C(=O)N(CC(=O)Nc3cnoc3)C4)cc(F)c12 [Example 65]
D (pIC50≤6)

Also Cc1n[nH]c2cc(Nc3cccc4c3C(=O)N(CC(=O)N[C@@H](C)C(F)(F)F)C4)ccc12 [Example 28] ?
A (pIC50>8)

Also Cn1ncc2cc(Nc3cccc4c3C(=O)N(CC(=O)NC(C)(C)C(F)(F)F)C4)ccc21 [Example 49] ?
A (pIC50>8)
